pKi: −log10 of the molar value.
Values of pKi reported for Serine/threonine-protein kinase Sgk1 (Homo sapiens, UniProt O00141) appear below.

>>> reported_result("CCOc1nc(NC(=O)Cc2cc(OC)ccc2OC)cc(N)c1C#N")
"< 5.03"

Consider now this further compound.
// query pKi value for entry `COc1cc(S(C)(=O)=O)c(OC)cc1CC(=O)Nc1cc(N)c(C#N)c(OC(C)C)n1` < 5.03

---

# Vd per entry
assay: Volume of distribution in iv dosed Sprague-Dawley rat; type: ADME, organism-based; settings: in vivo, read-out: Vdss
Use L/kg as the unit, but write only the number.

>>> reported_result("CCOc1nc(NC(=O)Cc2cc(OC)ccc2OC)cc(N)c1C#N")
2.6
>>> reported_result("CCOc1nc(NC(=O)Cc2cc(OC)c(S(C)(=O)=O)cc2OC)cc(N)c1Cl")
2
>>> reported_result("COc1cc(S(C)(=O)=O)c(OC)cc1CC(=O)Nc1cc(N)c(C#N)c(OC(C)C)n1")
8.6

Any idea what its Vd is? The compound is `CCOc1nc(NC(=O)Cc2cc(OC)c(S(C)(=O)=O)cc2OC)cc(N)c1C#N` 4.7
